# Measurement target: FAAH (Rattus norvegicus)
# Construct: Frozen brains (without cerebellum) from Wistar rats were used; from tissue; host or cells: Wistar rat brain (without cerebellum), washed membrane pellets
# Sequence (P97612 1-579): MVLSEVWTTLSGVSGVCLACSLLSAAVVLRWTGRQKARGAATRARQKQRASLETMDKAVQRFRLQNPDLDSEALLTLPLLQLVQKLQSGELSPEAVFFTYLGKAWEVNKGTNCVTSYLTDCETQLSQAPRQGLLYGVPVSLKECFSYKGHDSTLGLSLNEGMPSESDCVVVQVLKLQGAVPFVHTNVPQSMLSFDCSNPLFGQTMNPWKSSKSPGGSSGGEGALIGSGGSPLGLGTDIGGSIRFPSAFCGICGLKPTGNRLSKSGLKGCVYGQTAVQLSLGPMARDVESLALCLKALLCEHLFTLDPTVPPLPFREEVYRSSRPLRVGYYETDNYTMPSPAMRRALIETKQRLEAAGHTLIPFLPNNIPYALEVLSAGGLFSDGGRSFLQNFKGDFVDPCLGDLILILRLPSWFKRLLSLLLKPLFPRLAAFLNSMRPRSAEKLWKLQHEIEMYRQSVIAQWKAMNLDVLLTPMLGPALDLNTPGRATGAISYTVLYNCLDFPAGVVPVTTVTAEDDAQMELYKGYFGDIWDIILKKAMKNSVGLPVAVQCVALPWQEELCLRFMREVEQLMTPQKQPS
# Test summary: In vitro FAAH activity in rat brain membranes, 3H-AEA substrate, % of control
# Assay type: biochemical, Wistar rats
# Experimental context: 10 uM test compound, low value = strong inhibitor
Where a name gives a salt, the structure may show the parent alone.
Endpoint label: In Vitro FAAH activity, 10 uM

Q. Requested read-out: In Vitro FAAH activity, 10 uM. Entry: O=C(Nc1ccccc1)n1ccc(-c2ccc(-c3ccccc3)cc2)n1 [Compound 20]
A. 97.3 % of control

Q. Requested read-out: In Vitro FAAH activity, 10 uM. Entry: COc1ccc(NC(=O)n2ccc(-c3ccc(-c4ccccc4)cc3)n2)cc1 [Compound 23]
A. 93 % of control

Q. Requested read-out: In Vitro FAAH activity, 10 uM. Entry: O=C(N1CCOCC1)n1nnc2ccccc21 [Compound 19]
A. 0.1 % of control

Q. Requested read-out: In Vitro FAAH activity, 10 uM. Entry: O=C(N1CCOCC1)n1ccc(-c2cccnc2)n1 [Compound 21, hydrochloride]
A. 79.1 % of control

Q. Requested read-out: In Vitro FAAH activity, 10 uM. Entry: CN(C(=O)n1cnc(-c2ccccc2)c1)c1ccccc1 [Compound 4]
A. 0.1 % of control

====

# Measurement target: FAAH (Rattus norvegicus)
# Construct: Frozen brains (without cerebellum) from Wistar rats were used; from tissue; host or cells: Wistar rat brain (without cerebellum), washed membrane pellets
# Test summary: In vitro FAAH activity in rat brain membranes, 3H-AEA substrate, % of control
# Type: biochemical, Wistar rats
# Experimental context: rat brain membranes, compound at 100 nM, low value = strong inhibitor
Endpoint label: In Vitro 100 nM (FAAH activity, % of control)

Q. Requested read-out: In Vitro 100 nM (FAAH activity, % of control). Entry: CN(C(=O)n1cnc(-c2ccccc2)n1)C1CCCCC1 [Compound 283]
A. 75.1 % of control

Q. Requested read-out: In Vitro 100 nM (FAAH activity, % of control). Entry: CC1(C)COCN1C(=O)n1cnc(-c2ccc(Cl)cc2)c1Cl [Compound 280]
A. 111.8 % of control

Q. Requested read-out: In Vitro 100 nM (FAAH activity, % of control). Entry: COc1ccc(-c2cn(C(=O)N(C)C3CCCC3)cn2)cc1OC [Compound 281]
A. 25.5 % of control

Q. Requested read-out: In Vitro 100 nM (FAAH activity, % of control). Entry: CC1(C)COCN1C(=O)n1cnc(-c2cccc(O)c2)c1 [Compound 347]
A. 109.6 % of control

Q. Requested read-out: In Vitro 100 nM (FAAH activity, % of control). Entry: CC1(C)COCN1C(=O)n1cnc(-c2ccccc2)n1 [Compound 285]
A. 85.4 % of control
